System: MARIMO;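 also: after 48 h exposure read by CellTiter-Glo luminescence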
Test: cell viability relative to vehicle control; higher = less cytotoxic
Conditions: 10 µM; SRSF2 genotype: SRSF2 wt/wt
Measured cell viability, listed per entry.

# compound, test-target, unit-of-measurement, cell viability
measured = [
    ("CC(C)(C)NS(=O)(=O)c1cncc(-c2cc(F)c3nc(N)nn3c2)c1", "MARIMO", "%", 93.9),
    ("Cc1ccc(CN(CC(O)COc2cccc3[nH]ccc23)C(C)(C)C)cc1 (centres undefined)", "MARIMO", "%", 76.8),
    ("CN(C)c1cc(NC(=O)CNC(C)(C)C)c(O)c2c1CC1CC3C(N(C)C)C(=O)C(C(N)=O)=C(O)C3(O)C(=O)C1=C2O (centres undefined)", "MARIMO", "%", 97.2),
    ("C[C@H](Oc1ccc(S(C)(=O)=O)cc1C(=O)N1CCN(c2ncc(C(F)(F)F)cc2F)CC1)C(F)(F)F", "MARIMO", "%", 107),
]

Data origin, for the record: the supplement of paper PMC10981050
